Target: T1, Human C5 (human, UniProt P01031 19-1676)
T1 construct: The natural protein has a beta and an alpha chain; also called complement factor 5; complement component 5
Experiment: SPR, mAb captured by anti-hFc, 25C
# key: entry, value: koff
Reply numerically in s⁻¹, unit not repeated.

A selection of reference data follows.
| binder | koff, s⁻¹ |
| --- | --- |
| H4H12166P6 (antibody, human IgG4, V domains shown, human IgG4 Fc with S108P hinge mutation) VH: QVQLQESGPGLVKPSETLSLTCTVSGDSVSSSYWTWIRQPPGKGLEWIGYIYYSGSSNYNPSLKSRATISVDTSKNQFSLKLSSVTAADTAVYYCAREGNVDHTMIFDYWGQGTLVTVSS VL: AIQMTQSPSSLSASVGDRVTITCRASQGIRNDLGWYQQKPGKAPKLLIYAASSLQSGVPSRFAGRGSGTDFTLTISSLQPEDFATYYCLQDFNYPWTFGQGTKVEIK | 0.000184 |
| H4H12166P2 (antibody, human IgG4, V domains shown, human IgG4 Fc with S108P hinge mutation) VH: QVQLQESGPGLVKPSETLSLTCTVSGDSVSSSYWTWIRQPPGKGLEWIGYIYYSGSSNYNPSLKSRATISVDTSKNQFSLKLSSVTAADTAVYYCAREGNVDTTMIFDYWGQGTLVTVSS VL: AIQMTQSPSSLSASVGDRVTITCRASQGIRNDLGWYQQKPGKAPKLLIYAASSLQSGVPSRFAGRGSGTDFTLTISSLQPEDFATYYCHQDFNYPWTFGQGTKVEIK | 0.000361 |

// below: koff requested for another binder
input: Entry under review: H4H12166P8 (antibody, human IgG4, V domains shown, human IgG4 Fc with S108P hinge mutation) VH: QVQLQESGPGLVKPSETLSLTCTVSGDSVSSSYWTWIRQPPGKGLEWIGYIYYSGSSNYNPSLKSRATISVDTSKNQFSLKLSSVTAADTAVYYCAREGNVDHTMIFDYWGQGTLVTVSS VL: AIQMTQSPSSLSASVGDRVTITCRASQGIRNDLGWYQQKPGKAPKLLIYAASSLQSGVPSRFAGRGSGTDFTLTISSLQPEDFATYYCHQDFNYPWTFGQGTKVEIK . Reported koff?
output: 0.000686
